Recorded below: MIC, system Microsporum gypseum ATCC 14683.
Field: numeric (µg/mL). Do not append units.

Value of MIC reported for the compound C=C1C(=O)c2ccccc2OC1c1cccc([N+](=O)[O-])c1 (centres unmarked) is 6.2

Value of MIC reported for the compound C=C1C(=O)c2cc(C)ccc2OC1c1ccccc1 (centres unmarked) is 6.2

Value of MIC reported for the compound C=C1C(=O)c2ccccc2OC1(c1ccccc1)c1ccncc1 (centres unmarked) is 12.5

Value of MIC reported for the compound C=C1C(=O)c2ccccc2OC1(c1ccccc1)c1cccs1 (centres unmarked) is 6.2

* * *

Recorded below: MIC, system A. fumigatus NRRL 163.

Below are worked cases with known answers.
compound: C=C1C(=O)c2cc(Br)ccc2OC1c1ccc(Br)cc1 (stereo not drawn) [Ex. 17, 4',6-dibromo-3-methylene flavanone]
targetUnderTest: A. fumigatus NRRL 163
MIC: > 100 µg/mL
--
compound: C=C1C(=O)c2ccccc2OC1(c1ccccc1)c1ccccc1 [Ex. 20, 3-methylene-2-phenyl flavanone]
targetUnderTest: A. fumigatus NRRL 163
MIC: > 100 µg/mL

Next compound, MIC to be filled in.
Here CN(C)CC1C(=O)c2ccccc2OC1c1ccccc1 (stereo not drawn) [MA 1347, 3-(dimethylaminomethyl)flavanone, reference compound] was tested on A. fumigatus NRRL 163, and its MIC came to 6.2 to 25 µg/mL

* * *

This section presents compounds with their documented MIC values.
# System: C. guillermondii VM 42

Below are worked cases with known answers.
compound: C=C1C(=O)c2ccccc2OC1c1ccc2ccccc2c1 (stereo not shown)
MIC: > 100 µg/mL
//
compound: C=C1C(=O)c2ccccc2OC1(c1ccccc1)c1cccs1 (stereo not shown)
MIC: > 100 µg/mL
//
compound: CN(C)CC1C(=O)c2ccccc2OC1c1ccccc1 (stereo not shown) [MA 1347, 3-(dimethylaminomethyl)flavanone, reference compound]
MIC: 50 to 100 µg/mL

Next compound, MIC to be filled in.
Here C=C1C(=O)c2ccccc2OC1c1cccc(OC)c1 (stereo not shown) was tested on C. guillermondii VM 42, and its MIC came to > 100 µg/mL

* * *

Recorded below: MIC, system C. krusei VM 29B.

Below are worked cases with known answers.
molecule: C=C1C(=O)c2ccccc2OC1c1ccc(Br)cc1 (stereo not drawn)
measureName: MIC
measValue: 25 µg/mL
--
molecule: CN(C)CC1C(=O)c2ccccc2OC1c1ccccc1 (stereo not drawn) [MA 1347, 3-(dimethylaminomethyl)flavanone, reference compound]
measureName: MIC
measValue: 12.5 to 25 µg/mL

Here C=C1C(=O)c2ccccc2OC1c1ccc(Cl)cc1Cl (stereo not drawn) was tested on C. krusei VM 29B, and its MIC came to 25 to 50 µg/mL

* * *

Recorded below: MIC, system Microsporum gypseum ATCC 14683.

Below are worked cases with known answers.
molecule: CN(C)CC1C(=O)c2ccccc2OC1c1ccccc1 (stereo not shown) [MA 1347, 3-(dimethylaminomethyl)flavanone, reference compound]
measValue: 6.2 to 12.5 µg/mL
//
molecule: C=C1C(=O)c2ccccc2OC1c1ccc(C(C)(C)C)cc1 (stereo not shown)
measValue: 12.5 to 25 µg/mL
//
molecule: C=C1C(=O)c2ccccc2OC1c1ccccc1 (stereo not shown)
measValue: 6.2 to 12.5 µg/mL

Next molecule, MIC to be filled in.
Here C=C1C(=O)c2ccccc2OC1c1ccc(Cl)cc1Cl (stereo not shown) was tested on Microsporum gypseum ATCC 14683, and its MIC came to 6.2 to 12.5 µg/mL

Every entry's value here was drawn from patent US4241069A.
